- Assay Target: functional uptake of dopamine (DA) (Rattus norvegicus)
- Construct: synaptosomes isolated at Cerep in a 0.32 M sucrose buffer from a male Wistar rat striatum; tissue Cerep
- Sequence (P23977 whole entry): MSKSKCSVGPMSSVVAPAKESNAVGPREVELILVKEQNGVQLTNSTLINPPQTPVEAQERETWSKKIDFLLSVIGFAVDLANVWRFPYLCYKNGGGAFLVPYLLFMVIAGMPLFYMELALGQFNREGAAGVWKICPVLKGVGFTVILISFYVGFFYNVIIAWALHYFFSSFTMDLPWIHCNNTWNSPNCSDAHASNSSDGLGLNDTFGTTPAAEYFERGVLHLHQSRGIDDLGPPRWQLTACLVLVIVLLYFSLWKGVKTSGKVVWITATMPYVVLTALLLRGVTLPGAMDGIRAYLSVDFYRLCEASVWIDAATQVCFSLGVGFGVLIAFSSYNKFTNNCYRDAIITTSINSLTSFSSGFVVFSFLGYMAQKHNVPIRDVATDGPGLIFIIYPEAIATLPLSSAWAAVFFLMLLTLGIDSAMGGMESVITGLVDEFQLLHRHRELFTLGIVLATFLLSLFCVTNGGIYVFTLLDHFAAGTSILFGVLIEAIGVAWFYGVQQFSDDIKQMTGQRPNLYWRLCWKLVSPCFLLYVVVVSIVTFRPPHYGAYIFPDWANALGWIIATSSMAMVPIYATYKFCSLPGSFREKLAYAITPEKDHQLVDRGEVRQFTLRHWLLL
- Experiment Summary: Dopamine functional uptake assay in rat striatum synaptosomes
- Measurement Parameters: rat striatum synaptosomes, [3H]-dopamine, 15 minutes at 37° C.
pIC50: −log10 of the molar value.
Measurement Name: pIC50

{"Compound": "O=CN[C@@H]1CC[C@@H](c2ccc(Cl)c(Cl)c2)c2ccccc21 [E]", "Data Value": 6.29}

I. O=CN[C@@H]1CC[C@@H](c2ccc(Cl)c(Cl)c2)c2ccccc21 (racemic) [F]
II. N[C@@H]1CC[C@@H](c2ccc(Cl)c(Cl)c2)c2ccccc21 (racemic) [P + Q]
I'd appreciate it if you could identify which of I and II has the greater pIC50. Your answer should be the label attached to the chosen record.
II

====

- Assay Target: functional uptake of norepinephrine (NE) (Rattus norvegicus)
- Experiment Summary: Norepinephrine functional uptake assay in rat hypothalamus synaptosomes
- Measurement Parameters: [3H]-norepinephrine, 20 minutes at 37° C.
Measurement Name: IC50 (nM)

{"Molecule": "N[C@@H]1CC[C@@H](c2ccc(Cl)c(Cl)c2)c2ccccc21 [P]", "Unit Of Measurement": "nM", "IC50": 9.6}

I. N[C@@H]1CC[C@@H](c2ccc(Cl)c(Cl)c2)c2ccccc21 (racemic) [P + Q]
II. CC(NC(C)(C)C)C(=O)c1cccc(Cl)c1 (stereo not drawn) [bupropion, reference compound]
III. O=CN[C@@H]1CC[C@@H](c2ccc(Cl)c(Cl)c2)c2ccccc21 [E]
IV. O=CN[C@@H]1CC[C@@H](c2ccc(Cl)c(Cl)c2)c2ccccc21 (racemic) [F]
V. N[C@H]1CC[C@H](c2ccc(Cl)c(Cl)c2)c2ccccc21
Please list these molecules in decreasing order of IC50. Please express your ranking as an ordered list of the labels.
IV, II, III, V, I
(IV: 3900 nM, II: 611 nM, III: 400 nM, V: 35 nM, I: 8.8 nM)

====

- Assay Target: functional uptake of serotonin (5-HT) (Rattus norvegicus, UniProt P31652)
- Construct: synaptosomes isolated in a 0.32M sucrose buffer from a male Wistar rat cortex
- Sequence (P31652 whole entry): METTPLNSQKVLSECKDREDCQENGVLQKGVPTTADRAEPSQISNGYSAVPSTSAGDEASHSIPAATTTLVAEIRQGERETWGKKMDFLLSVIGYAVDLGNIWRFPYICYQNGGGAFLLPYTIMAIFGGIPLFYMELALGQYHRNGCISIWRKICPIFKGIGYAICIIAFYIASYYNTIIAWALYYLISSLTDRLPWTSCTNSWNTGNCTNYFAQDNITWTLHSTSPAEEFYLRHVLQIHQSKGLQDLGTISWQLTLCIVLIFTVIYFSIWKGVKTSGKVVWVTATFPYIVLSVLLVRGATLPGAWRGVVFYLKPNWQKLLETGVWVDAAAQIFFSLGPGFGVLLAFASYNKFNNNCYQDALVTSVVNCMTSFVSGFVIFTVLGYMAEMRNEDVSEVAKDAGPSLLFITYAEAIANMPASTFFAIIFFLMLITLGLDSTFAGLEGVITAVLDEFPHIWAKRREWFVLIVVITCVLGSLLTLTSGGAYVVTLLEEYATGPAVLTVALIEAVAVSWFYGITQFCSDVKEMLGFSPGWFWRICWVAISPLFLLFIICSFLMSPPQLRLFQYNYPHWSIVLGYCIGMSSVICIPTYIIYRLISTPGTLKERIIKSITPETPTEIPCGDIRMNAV
- Experiment Summary: Serotonin functional uptake assay in rat synaptosomes
- Measurement Parameters: rat synaptosomes, [3H]5-hydroxytryptamine, 15 min at 37° C.
Measurement Name: pIC50
When answering, recall that pIC50 equals minus log10 of the concentration in mol/L, and write that number alone.

Query: pIC50; subject: O=CN[C@@H]1CC[C@@H](c2ccc(Cl)c(Cl)c2)c2ccccc21
5.12
